Molecular target: T1, Human IL2Rγ extracellular domain expressed with a C-terminal myc-myc-hexahistidine tag (human)
T1 construct: also called hIL-2Rg-MMH; hIL-2RG-MMH
T1 chain: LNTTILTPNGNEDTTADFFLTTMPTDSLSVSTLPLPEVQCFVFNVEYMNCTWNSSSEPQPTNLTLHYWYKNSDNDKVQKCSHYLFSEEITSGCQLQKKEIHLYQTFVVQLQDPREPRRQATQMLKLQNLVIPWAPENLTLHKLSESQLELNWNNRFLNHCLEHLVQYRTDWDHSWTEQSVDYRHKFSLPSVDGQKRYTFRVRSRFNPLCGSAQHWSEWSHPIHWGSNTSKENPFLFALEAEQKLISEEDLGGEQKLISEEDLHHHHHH
Test: SPR Biacore 4000, mAb captured by anti-hFc, HBS-ET, 25C
Method: Equilibrium dissociation constants (KD values) for IL-2Rγ binding to purified anti-IL2Rγ monoclonal antibodies were determined using a Biacore 4000 instrument equipped with a real-time surface plasmon resonance biosensor. […] The dissociation of monoclonal antibody bound IL2Rγ reagents were monitored for 8-10 minutes in HBS-ET running buffer. […] Binding dissociation equilibrium constants (KD) and dissociative half-lives (t_{1/2}) were calculated from the kinetic rate constants as: […]
QUANTITY_KIND: koff (s⁻¹)
Provide the reading as a plain figure in s⁻¹.

In the examples that follow, each entry is paired with its recorded koff.
BINDER	READING_UNIT	koff
H4H12899P (antibody, human IgG4 S228P, kappa, V domains shown, anti-IL2Rγ monoclonal antibody expressed with human IgG4 Fc) VH: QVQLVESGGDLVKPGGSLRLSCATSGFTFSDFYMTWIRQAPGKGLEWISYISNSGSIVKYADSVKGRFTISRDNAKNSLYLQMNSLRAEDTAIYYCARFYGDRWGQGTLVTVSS VL: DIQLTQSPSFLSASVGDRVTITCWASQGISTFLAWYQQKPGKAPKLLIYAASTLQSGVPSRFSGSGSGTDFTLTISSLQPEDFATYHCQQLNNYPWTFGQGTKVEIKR	s⁻¹	0.000458
H4H12884P (antibody, human IgG4 S228P, kappa, V domains shown, anti-IL2Rγ monoclonal antibody expressed with human IgG4 Fc) VH: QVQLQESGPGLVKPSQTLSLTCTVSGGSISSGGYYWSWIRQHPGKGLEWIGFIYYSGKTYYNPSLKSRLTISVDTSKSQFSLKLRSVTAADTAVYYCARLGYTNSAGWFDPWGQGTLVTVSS VL: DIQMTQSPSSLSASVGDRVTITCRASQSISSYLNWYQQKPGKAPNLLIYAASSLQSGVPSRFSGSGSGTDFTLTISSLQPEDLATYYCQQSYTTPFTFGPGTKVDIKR	s⁻¹	0.00139

Let us examine a further case.
Problem: Data request, read-out koff, for H4H12900P (antibody, human IgG4 S228P, kappa, V domains shown, anti-IL2Rγ monoclonal antibody expressed with human IgG4 Fc) VH: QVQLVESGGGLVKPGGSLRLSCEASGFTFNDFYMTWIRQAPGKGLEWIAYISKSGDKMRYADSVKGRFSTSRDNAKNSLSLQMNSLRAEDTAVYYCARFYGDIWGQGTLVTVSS VL: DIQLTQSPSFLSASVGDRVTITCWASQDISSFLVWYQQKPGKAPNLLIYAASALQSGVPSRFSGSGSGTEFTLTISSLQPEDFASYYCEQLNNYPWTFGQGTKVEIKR
Solution: 0.000379
